// reported melting point for each item listed
measured-property: melting point

- molecule: "COc1cc2ncnc(Nc3cccc(-c4cn(Cc5ccccc5C#N)nn4)c3)c2cc1OCCCN1CCOCC1 [Compound 4l]"
  measured-property: "melting point"
  data-value: "167 to 168 °C"
- molecule: "COc1cc2ncnc(Nc3cccc(-c4cn(Cc5ccccc5Br)nn4)c3)c2cc1OCCCN1CCOCC1 [Compound 4b]"
  measured-property: "melting point"
  data-value: "165 to 166 °C"
- molecule: "COc1cc2ncnc(Nc3cccc(-c4cn(Cc5ccc(C)cc5)nn4)c3)c2cc1OCCCN1CCOCC1 [Compound 4n]"
  measured-property: "melting point"
  data-value: "168 to 169 °C"
- molecule: "COc1cc2ncnc(Nc3cccc(-c4cn(-c5ccccc5Cl)nn4)c3)c2cc1OCCCN1CCOCC1 [Compound 4h]"
  measured-property: "melting point"
  data-value: "167 to 168 °C"
- molecule: "COc1cc2ncnc(Nc3cccc(-c4cn(-c5ccc(Cl)cc5)nn4)c3)c2cc1OCCCN1CCOCC1 [Compound 4d]"
  measured-property: "melting point"
  data-value: "162 to 163 °C"
- molecule: "COc1cc2ncnc(Nc3cccc(-c4cn(Cc5cccc(F)c5)nn4)c3)c2cc1OCCCN1CCOCC1 [Compound 4c]"
  measured-property: "melting point"
  data-value: "202 to 203 °C"
- molecule: "COc1cc2ncnc(Nc3cccc(-c4cn(-c5ccccc5Br)nn4)c3)c2cc1OCCCN1CCOCC1 [Compound 4e]"
  measured-property: "melting point"
  data-value: "175 to 176 °C"
- molecule: "COc1cc2ncnc(Nc3cccc(-c4cn(-c5cccc6c5C(=O)N(C5CCC(=O)NC5=O)C6=O)nn4)c3)c2cc1OCCCN1CCOCC1 (centres unmarked) [Compound 4j]"
  measured-property: "melting point"
  data-value: "187 to 188 °C"
- molecule: "COc1cc2ncnc(Nc3cccc(-c4cn(Cc5ccc(Br)cc5)nn4)c3)c2cc1OCCCN1CCOCC1 [Compound 4k]"
  measured-property: "melting point"
  data-value: "177 to 178 °C"
- molecule: "COc1cc2ncnc(Nc3cccc(-c4cn(Cc5ccc(F)c(Cl)c5)nn4)c3)c2cc1OCCCN1CCOCC1 [Compound 4a]"
  measured-property: "melting point"
  data-value: "192 to 193 °C"
- molecule: "COc1cc2ncnc(Nc3cccc(-c4cn(-c5ccc([N+](=O)[O-])c(C)c5)nn4)c3)c2cc1OCCCN1CCOCC1 [Compound 4f]"
  measured-property: "melting point"
  data-value: "175 to 176 °C"
